B1: TRAF3IP2 (parent)
chain: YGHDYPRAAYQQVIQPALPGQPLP

variants of: B1; assay: protein stability index of a GFP-peptide fusion (GPS, HEK-293T) (PSI 1-6); higher = more stable; conditions: c terminus: a fixed tail appended;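 note: lentivirally expressed fusions sorted by FACS into six bins by GFP to DsRed ratio, PSI derived from sequencing read proportions per bin multiplied by bin number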
What protein stability index was measured for each of the following?
Give only the figure.

Enquiry: Quick one: protein stability index for Q11T ?
Return: 3.14

Enquiry: Moving on to A9T
Return: 1.97

Enquiry: Moving on to Y1G
Return: 3.63

Enquiry: Moving on to H3F
Return: 2.08

Enquiry: Moving on to Y1P
Return: 4.1

Enquiry: Moving on to D4I
Return: 2.1

Enquiry: Moving on to P6H
Return: 1.93

Enquiry: Moving on to L23T
Return: 1.99

Enquiry: Moving on to P6R
Return: 1.99

Enquiry: Moving on to G2C
Return: 1.67

Enquiry: Moving on to Q15P
Return: 2.45

Source: the supplement of paper PMC10567573
